Reported Cmax values are given for each entry in this list.
# Assay summary: Disposition and mass balance of 14C-vernakalant hydrochloride after single IV and oral doses in CYP2D6 EMs and PMs
# Type: in vivo, human
# Test settings: plasma; IV infusion, single 240-mg dose; EMs (n = 5)
Unit µg/mL implied. Number only.

Below, each entry is followed by its recorded Cmax result.
{"Compound": "COc1cc(CCO[C@@H]2CCCC[C@H]2N2CC[C@@H](O)C2)ccc1OC1OC(C(=O)O)C(O)C(O)C1O (stereo partly shown) [Compound 2 glucuronide]", "Cmax [µg/mL]": 3.489}
{"Compound": "COc1ccc(CCO[C@@H]2CCCC[C@H]2N2CC[C@@H](O)C2)cc1O", "Cmax [µg/mL]": 0.00285}
{"Compound": "COc1cc(CCO[C@@H]2CCCC[C@H]2N2CC[C@@H](O)C2)ccc1O", "Cmax [µg/mL]": 0.0686}

Please look at the following compound next.
Entry COc1ccc(CCO[C@@H]2CCCC[C@H]2N2CC[C@@H](O[C@@H]3O[C@H](C(=O)O)[C@@H](O)[C@H](O)[C@H]3O)C2)cc1OC [Vernakalant glucuronide] ; Cmax = 0.4556

----------
The following compounds are shown together with reported Cmax values.
# Assay summary: Disposition and mass balance of 14C-vernakalant hydrochloride after single IV and oral doses in CYP2D6 EMs and PMs
# Type: in vivo, human
# Test settings: plasma; oral administration, single 240-mg dose; PMs (n = 2)
Value expressed in ng/mL; do not type the unit.

{"Compound": "COc1cc(CCO[C@@H]2CCCC[C@H]2N2CC[C@@H](O)C2)ccc1OC1OC(C(=O)O)C(O)C(O)C1O (stereo partly shown) [Compound 2 glucuronide]", "Cmax, ng/mL": 230.5}
{"Compound": "COc1cc(CCO[C@@H]2CCCC[C@H]2N2CC[C@@H](O)C2)ccc1O", "Cmax, ng/mL": 6.25}
{"Compound": "COc1ccc(CCO[C@@H]2CCCC[C@H]2N2CC[C@@H](O)C2)cc1O", "Cmax, ng/mL": 9.08}

// below: Cmax requested for another compound
Documented Cmax of COc1ccc(CCO[C@@H]2CCCC[C@H]2N2CC[C@@H](O[C@@H]3O[C@H](C(=O)O)[C@@H](O)[C@H](O)[C@H]3O)C2)cc1OC [Vernakalant glucuronide] : 1078

----------
# Assay summary: Disposition and mass balance of 14C-vernakalant hydrochloride after single IV and oral doses in CYP2D6 EMs and PMs
# Format: in vivo, human
# Test settings: IV infusion of 14C-vernakalant; PMs (n = 2)
# Cumulative Amount Excreted in Urine During the 7 Days After Administration values compiled below
Report the value in mg with no unit label.

// below: answered compounds
{"Compound": "COc1cc(CCO[C@@H]2CCCC[C@H]2N2CC[C@@H](O)C2)ccc1OC1OC(C(=O)O)C(O)C(O)C1O (stereo partly shown) [Compound 2 glucuronide]", "Val": 11.36}
{"Compound": "COc1cc(CCO[C@@H]2CCCC[C@H]2N2CC[C@@H](O)C2)ccc1O [Compound 2]", "Val": 0.48}
{"Compound": "COc1ccc(CCO[C@@H]2CCCC[C@H]2N2CC[C@@H](O)C2)cc1O [Compound 3]", "Val": 0.16}

Lab book: Cumulative Amount Excreted in Urine During the 7 Days After Administration of COc1ccc(CCO[C@@H]2CCCC[C@H]2N2CC[C@@H](O[C@@H]3O[C@H](C(=O)O)[C@@H](O)[C@H](O)[C@H]3O)C2)cc1OC [Vernakalant glucuronide] noted as 44.22

The values you see were collected from patent US20080312309A1.
